Tested on: NCI-H23 lung
Test: NCI-60 one-dose screen, 48 h
Details: 10 µM unless noted
Compounds without any hit were thinned out: in the full panel of roughly 83,000, 20% have a hit. Calls of active or inactive are those of the source. Rule for the calls: active = growth percent below 10; inactive = the rest.
Response enum: true (1) for active, false (0) for inactive

Query: recorded result category for Nc1nc(Nc2ccccc2SSc2ccccc2Nc2nc(N)nc(-c3ccc4ccccc4c3)n2)nc(-c2ccc3ccccc3c2)n1 in this test
false (0)

Query: recorded result category for Brc1ccccc1/C=N/Nc1nc(N/N=C/c2ccccc2Br)nc(N2CCOCC2)n1 in this test
false (0)

Query: recorded result category for NS(=O)(=O)c1ccc(Nc2nc(N/N=C/c3c[nH]c4ccccc34)nc(Nc3ccccc3)n2)cc1 in this test
false (0)

Query: recorded result category for Nc1ccccc1NC(=O)c1ccc(NC(=O)C/C=C/c2cccnc2)cn1 in this test
false (0)

Query: recorded result category for C[C@H](CCC(=O)NCc1ccc(C(=O)Nc2ccccc2N)cc1)[C@H]1CC[C@H]2[C@@H]3[C@@H](O)C[C@@H]4C[C@H](O)CC[C@]4(C)[C@H]3CC[C@]12C in this test
false (0)

Query: recorded result category for C=C(C)[C@@H]1CC[C@]2(COP(=O)(OCC)OCC)CC[C@]3(C)[C@H](CC[C@@H]4[C@@]5(C)CCCNC(C)(C)[C@@H]5CC[C@]43C)[C@@H]12 in this test
false (0)

Query: recorded result category for COc1ccc(-c2nc3cccc(O)c3c(=O)n2Cc2ccccc2)cc1COc1ccc(NC(C)=O)cc1 in this test
false (0)

Query: recorded result category for COc1cc(-c2nn(C(C)(C)C)cc2-c2ccnc(NCCCNS(=O)(=O)c3ccc(C)cc3)n2)ccc1Cl in this test
false (0)

Query: recorded result category for CCOC(=O)c1c(NC(=O)c2ccccc2C(F)(F)F)sc2c1CCC(=O)C2 in this test
false (0)

----------
Test system: ACHN renal
Assay: NCI-60 one-dose screen, 48 h (100 = growth as untreated, 0 = no growth, -100 = all killed)
Details: 10 µM unless noted
This is part of a sample that, as a whole, favours compounds with a hit. Of some 83,000 tested, about 20% had one in any assay.
propertyName: growth (%)
Report only the number, with the unit % understood.

Worked examples follow.
{"columns": ["compound", "growth, %"],
 "data": [
  ["O=S(=O)(NCCNc1nccc(-n2cnc3ccccc32)n1)c1ccc(Br)cc1", 93.6],
  ["Cc1cccc(/C=C/C(=O)Nc2ncc(Cc3cccc(C)c3)s2)c1", 42.1],
  ["COc1ccc(/C=C(\\C#N)C(=O)N2c3ccccc3Sc3ccc(SC)cc32)cc1F", 88.5],
  ["COc1ccc(/C(N)=N/C(N)=N/c2nc3ccccc3s2)cc1", 80.8],
  ["COc1c(N2CC3CCCNC3C2)c(F)cc2c(=O)c(C(=O)N/N=C/c3c[nH]c4ccccc34)cn(C3CC3)c12 (stereo not drawn)", 99.8],
  ["C=C(C=O)[C@@H]1CC[C@]2(COC(C)=O)CC[C@]3(C)C(CC[C@@H]4[C@@]5(C)CC[C@H](OC(C)=O)C(C)(C)[C@@H]5CC[C@]43C)[C@@H]12 (stereo partly drawn)", -54.3]
]}

Readout growth for COC(=O)/C=C/c1c(C2(C)NC(=O)c3ccccc3N2)c(=O)oc2ccc(Cl)cc12 (stereo not drawn) , test system ACHN renal, was 87.4

Readout growth for Cc1ccc(-n2c(/C=C3\C(=O)Nc4ccccc43)ccc2CO)cc1 , test system ACHN renal, was 76.5

Readout growth for COC(=O)C[Se]C(=O)Cc1c(C)n(C(=O)c2ccc(Cl)cc2)c2ccc(OC)cc12 , test system ACHN renal, was 53.2

Readout growth for O=C(CSc1nc2ccccc2c(=O)n1-c1ccc(Cl)cc1)N/N=C/c1ccc(N2CCCCC2)cc1 , test system ACHN renal, was 17.4

Readout growth for C[C@H](CCC(=O)NCc1ccc(C(=O)Nc2ccccc2N)cc1)[C@H]1CC[C@H]2[C@@H]3[C@@H](O)C[C@@H]4C[C@H](O)CC[C@]4(C)[C@H]3CC[C@]12C , test system ACHN renal, was 92.9

Readout growth for O=C(Nc1ccc2c(ccn2Cc2ccccn2)c1)c1cnccn1 , test system ACHN renal, was 100

Readout growth for Cc1ccc(-n2cc(/C=C/C(=O)c3ccc(O)cc3)c(-c3ccc(S(C)(=O)=O)cc3)n2)cc1 , test system ACHN renal, was 67.7

Readout growth for COc1ccc(C2c3sc4c(C)cccc4c3Oc3nc(CC(=O)Nc4ccccc4)[nH]c(=O)c32)cc1 (stereo not drawn) , test system ACHN renal, was 92.9

Readout growth for COc1cccc(N2CCN(c3ncnc4c3[nH]c3ccc(F)cc34)C[C@H]2C)c1 , test system ACHN renal, was 63.2

Readout growth for Oc1cccc2ccc(-c3nnc(SCc4ccc(O)c5ncccc45)n3-c3ccccc3)nc12 , test system ACHN renal, was 7.49

Readout growth for Nc1nc(-c2cccc([N+](=O)[O-])c2)c(N=Nc2cccc([N+](=O)[O-])c2)s1 , test system ACHN renal, was 11.5

Readout growth for Cc1ccc2sc3c(c2c1)OC(N)=C(C#N)C3c1cccc(F)c1 (stereo not drawn) , test system ACHN renal, was 20.6

Hey, just so you know, these numbers are from PubChem BioAssay (NCI).
